Cited source: ChEMBL document CHEMBL1201862

In this section, each of the compounds is paired with its reported GI50.
System: COLO 205
procedureDetails: NCI tumour cell line growth inhibition, 48 h
Calls of active or inactive are those of the source. No stated cut-off is given here; in the data, active = GI50 up to about 1.1 µM and inactive = higher.
measuredEndpoint: GI50

[
  {
    "smiles": "O=C(O)Cc1ccc(Oc2nc3ccccc3nc2C(=O)O)cc1",
    "result": "> 100 µM (inactive)"
  },
  {
    "smiles": "CC1=NC2=Nc3nc(C)cc[n+]3CN2C=C1",
    "result": "67.5 µM (inactive)"
  },
  {
    "smiles": "COc1cc(/C=C/c2ccnc3ccccc23)cc(OC)c1OC",
    "result": "1.88 µM (inactive)"
  },
  {
    "smiles": "CC1=C(C)SC(=C2Sc3c(n(C)c(=O)n(C)c3=O)S2)S1",
    "result": "89.9 µM (inactive)"
  },
  {
    "smiles": "NS(=O)(=O)c1ccc(NC(=O)c2cccc3cc4ccccc4nc23)cc1",
    "result": "12.2 µM (inactive)"
  }
]

====

Test system: HT-29
procedureDetails: NCI tumour cell line growth inhibition, 48 h
The source made the active and inactive calls. Cut-off read from the data, not from the text of the source: active = GI50 up to about 1.1 µM and inactive = higher.

[
  {
    "molecule": "Nc1nc(Cl)c(CO)c(NCC2(CO)CCC2)n1",
    "GI50": "> 100 µM (inactive)"
  },
  {
    "molecule": "c1ccc(-c2nc3ccccc3n3nnnc23)cc1",
    "GI50": "> 100 µM (inactive)"
  },
  {
    "molecule": "NC(CCc1nc(-c2ccc(Cl)cc2)cs1)C(=O)O (stereo unspecified)",
    "GI50": "> 100 µM (inactive)"
  },
  {
    "molecule": "C=CC12CN(C)C3C4COC(CC41)C1(C(=O)Nc4ccccc41)C32 (stereo unspecified)",
    "GI50": "> 145 µM (inactive)"
  },
  {
    "molecule": "CCOC(=O)C1=C(Nc2ccc(NC3=C(C(=O)OCC)C(=O)CS3)cc2)SCC1=O",
    "GI50": "19.3 µM (inactive)"
  },
  {
    "molecule": "O=[N+]([O-])c1ccc(O)c(/C=N/c2nc(-c3ccccc3)cs2)c1",
    "GI50": "34.2 µM (inactive)"
  }
]

====

Test system: ACHN
procedureDetails: NCI tumour cell line growth inhibition, 48 h
The source made the active and inactive calls. Cut-off read from the data, not from the text of the source: active = GI50 up to about 1.1 µM and inactive = higher.
measuredEndpoint: GI50

[
  {
    "compound": "COc1ccccc1NC(=O)C(CC(C(=O)Nc1ccccc1OC)/C(C)=N/Nc1ccc([N+](=O)[O-])cc1[N+](=O)[O-])/C(C)=N/Nc1ccc([N+](=O)[O-])cc1[N+](=O)[O-] (stereo not given)",
    "result": "> 86.1 µM (inactive)"
  },
  {
    "compound": "CC(=O)Nc1sccc1S(=O)(=O)c1ccc(Cl)cc1",
    "result": "> 100 µM (inactive)"
  },
  {
    "compound": "[N-]=[N+]=NC1=C(c2ccccc2)C(=O)c2cccc3cccc1c23",
    "result": "6.01 µM (inactive)"
  },
  {
    "compound": "CC(C)(O)/C=C\\P(C)(=O)c1ccccc1 (stereo not given)",
    "result": "> 100 µM (inactive)"
  },
  {
    "compound": "CNS(=O)(=O)NNS(=O)(=O)c1ccc(C)cc1",
    "result": "> 100 µM (inactive)"
  }
]

====

System: NCI-H522
procedureDetails: NCI tumour cell line growth inhibition, 48 h
Calls of active or inactive are those of the source. Rule as the data show it: active = GI50 up to about 1.1 µM and inactive = higher.
measuredEndpoint: GI50

[
  {
    "compound": "CCOC(=O)C1C(NC(N)=O)N(Cc2ccccc2)C(=O)N1Cc1ccccc1 (stereo not drawn)",
    "result": "> 100 µM (inactive)"
  },
  {
    "compound": "CCc1n[nH]c(=O)n1NC(=O)CCCC(=O)O",
    "result": "> 100 µM (inactive)"
  },
  {
    "compound": "COc1ccc(N[C@H](C[S+]([O-])c2ccc(C)cc2)c2ccc(F)cc2)cc1 (stereo partly drawn)",
    "result": "13.2 µM (inactive)"
  },
  {
    "compound": "CC1(C)S[C@@H]2[C@H](N3C(=O)c4ccccc4C3=O)CN2[C@H]1NC(=O)N[C@@H]1N2C[C@@H](N3C(=O)c4ccccc4C3=O)[C@H]2SC1(C)C",
    "result": "> 100 µM (inactive)"
  },
  {
    "compound": "Cn1ccnc1Sc1ccc(/C=N/NC(=O)c2ccccc2O)cc1[N+](=O)[O-]",
    "result": "41.7 µM (inactive)"
  },
  {
    "compound": "Cc1cc(C)c(C#N)c(SC(=S)NC(=O)c2ccccc2)n1",
    "result": "> 100 µM (inactive)"
  },
  {
    "compound": "Cc1ccc(C)c(COCCOCn2cc(N3CCOCC3)c(=O)[nH]c2=O)c1",
    "result": "> 100 µM (inactive)"
  },
  {
    "compound": "Sc1nnc(-c2ccccc2Nc2ccccc2-c2nnc(S)n2-c2ccccc2)n1-c1ccccc1",
    "result": "26.7 µM (inactive)"
  },
  {
    "compound": "CC(C)(C)OC(=O)NCCCCC1NC(=O)[C@@H]2Cc3c([nH]c4ccccc34)C(c3ccccc3)N2C1=O (stereo partly drawn)",
    "result": "23 µM (inactive)"
  },
  {
    "compound": "CC1(C)C2CCC(=O)C1C(OCc1ccccc1)C2 (stereo not drawn)",
    "result": "> 100 µM (inactive)"
  },
  {
    "compound": "CCCCCCCOc1ccc(/C=C\\c2cc[n+](CCCCCCCC[n+]3ccc(/C=C\\c4ccc(OCCCCCCC)cc4)cc3)cc2)cc1",
    "result": "2.64 µM (inactive)"
  },
  {
    "compound": "CC(C)(C)c1cc(C2=NN(c3ccccc3)C(c3ccccc3)C2)cc(C(C)(C)C)c1O (stereo not drawn)",
    "result": "> 100 µM (inactive)"
  },
  {
    "compound": "Cc1cc(-c2ccc(Cl)cc2)c(C#N)c(=S)n1C1OC(CO)C(O)C(O)C1O (stereo not drawn)",
    "result": "> 100 µM (inactive)"
  },
  {
    "compound": "COc1c2ccoc2c(OC)c2oc(=O)ccc12",
    "result": "> 100 µM (inactive)"
  },
  {
    "compound": "O=C(/C=C/c1ccccc1Cl)NC1C=Nc2ccc([N+](=O)[O-])cc2NC1 (stereo not drawn)",
    "result": "22.6 µM (inactive)"
  },
  {
    "compound": "C[C@H](CCC(=O)O)[C@H]1CC[C@H]2[C@@H]3[C@H](O)[C@H](O)[C@@H]4C[C@H](O)CC[C@]4(C)[C@H]3CC[C@]12C",
    "result": "> 100 µM (inactive)"
  },
  {
    "compound": "Cc1ccc(Oc2cc(C)ccc2P(=O)(O)O)cc1",
    "result": "> 100 µM (inactive)"
  },
  {
    "compound": "COC(=O)C1=C(OC(=O)c2ccccc2)C(C(=O)OC)[C@@]2(O)[C@@H](C(=O)OC)[C@H](C)C[C@@H]1[C@@H]2C(=O)OC (stereo partly drawn)",
    "result": "13.2 µM (inactive)"
  }
]

====

Test system: MDA-MB-231
procedureDetails: NCI tumour cell line growth inhibition, 48 h
Active and inactive are the calls of the source. Rule as the data show it: active = GI50 up to about 1.1 µM and inactive = higher.
Outcomes: YES (active), NO (inactive)

[
  {
    "compound": "Cc1ccc2c(c1)NC(c1ccc(C(=O)O)cc1)c1cccn1-2 (stereo not given)",
    "categoryLabel": "NO"
  },
  {
    "compound": "CC(=O)CCn1c(=S)sc2ccccc21",
    "categoryLabel": "NO"
  },
  {
    "compound": "CC1(CCCCO)C=CC(S(=O)(=O)c2ccccc2)CC1 (stereo not given)",
    "categoryLabel": "NO"
  },
  {
    "compound": "O=C(O)Cc1ccc(Oc2nc3ccccc3nc2C(=O)O)cc1",
    "categoryLabel": "NO"
  },
  {
    "compound": "COc1cc(/C=C2/SC(c3ccccc3)N(c3cc(Cl)ccc3Cl)C2=O)cc(OC)c1OC (stereo not given)",
    "categoryLabel": "NO"
  },
  {
    "compound": "CCCC(=O)OCC1(CO)C/C(=C/CC(C(C)C)C(C)C)C(=O)O1 (stereo not given)",
    "categoryLabel": "NO"
  },
  {
    "compound": "Clc1cc(Cl)cc(C2ON=C(c3ccccc3)N2C23CC4CC(CC(C4)C2)C3)c1 (stereo not given)",
    "categoryLabel": "NO"
  },
  {
    "compound": "COc1cc2c(cc1-c1coc3cc(OCC=C(C)C)ccc3c1=O)OCO2",
    "categoryLabel": "NO"
  },
  {
    "compound": "O=c1[nH]nc(Cc2ccccc2)n1-n1cnnc1",
    "categoryLabel": "NO"
  },
  {
    "compound": "CCOC(=O)CSc1[nH]c2nc(C)nc(Cl)c2c1C#N",
    "categoryLabel": "NO"
  },
  {
    "compound": "O=C1NC(N2CCCC(CO)C2)=N/C1=C\\c1ccccc1 (stereo not given)",
    "categoryLabel": "NO"
  },
  {
    "compound": "O=C1/C(=C/c2ccccc2S)N=C(c2ccccc2)N1c1nc2ccc(Sc3ccccc3)cc2[nH]1",
    "categoryLabel": "NO"
  },
  {
    "compound": "C=C1CC=CC(C)(C)C1C/C=C(\\C)C(O)CBr (stereo not given)",
    "categoryLabel": "NO"
  },
  {
    "compound": "O=Cc1ccc2c(c1)CC1(C2)Cc2ccc(C=O)cc2C1",
    "categoryLabel": "NO"
  },
  {
    "compound": "CCSC12OC3(CCCCCN3C1=O)C1C(=O)N(c3ccccc3)C(=O)C12 (stereo not given)",
    "categoryLabel": "NO"
  },
  {
    "compound": "CC(Oc1ccc(Oc2cnc3ccc(Cl)cc3n2)cc1)C(=O)O (stereo not given)",
    "categoryLabel": "NO"
  },
  {
    "compound": "CCc1cc2c(cc1C(=O)CCC(=O)O)CC1(C2)Cc2cc(CC)c(C(=O)CCC(=O)O)cc2C1",
    "categoryLabel": "NO"
  },
  {
    "compound": "CCOC(=O)C(NCc1ccccc1)(NC(=O)c1ccccc1)C(F)(F)F (stereo not given)",
    "categoryLabel": "NO"
  },
  {
    "compound": "N=C(N)SC1c2ccccc2-c2cc([N+](=O)[O-])ccc21 (stereo not given)",
    "categoryLabel": "NO"
  },
  {
    "compound": "COc1cc2c(cc1OCCCNC(=O)c1cc3ccccc3[nH]1)N=C[C@@H]1CCCN1C2=O",
    "categoryLabel": "YES"
  },
  {
    "compound": "C/C(=N\\Nc1nc2ccccc2o1)c1ccc2ccccc2n1",
    "categoryLabel": "NO"
  },
  {
    "compound": "Nc1nc2c(c(-c3cccc(Cl)c3)n1)COC/C2=C\\c1cccc(Cl)c1",
    "categoryLabel": "NO"
  },
  {
    "compound": "CCOC(=O)C(C)NC(=O)C(C)NC(=O)C(C)NC(=O)C(C)NC(=O)C(C)NC(=O)OCc1ccccc1 (stereo not given)",
    "categoryLabel": "NO"
  },
  {
    "compound": "COC(=O)c1cc2c(o1)Sc1ccccc1NC2=O",
    "categoryLabel": "NO"
  },
  {
    "compound": "Cc1cccc2c1C(=O)C1(Cc3ccccc3C1=O)C2 (stereo not given)",
    "categoryLabel": "NO"
  },
  {
    "compound": "c1ccc2c(c1)ccc1nc(-c3ccc4c(c3)OCO4)c3c(c12)CCC3",
    "categoryLabel": "NO"
  },
  {
    "compound": "CCC(CCCC[C@H]1CC[C@@H]2CC(=O)C[C@H]12)OC (stereo not given in full)",
    "categoryLabel": "NO"
  },
  {
    "compound": "CC[N+]1(C)CCC(O)(/C=C/c2ccc(Cl)cc2)C(C(=O)/C=C/c2ccc(Cl)cc2)C1 (stereo not given)",
    "categoryLabel": "NO"
  },
  {
    "compound": "C/C(Cc1ccc2c(c1)OCO2)=N\\NC(=O)C(C)Sc1nnc(SC(C)C(=O)N/N=C(\\C)Cc2ccc3c(c2)OCO3)s1 (stereo not given)",
    "categoryLabel": "NO"
  },
  {
    "compound": "COc1ccc(N(CN2C(=O)CCC2C(=O)O)C(C)=O)cc1 (stereo not given)",
    "categoryLabel": "NO"
  },
  {
    "compound": "CC(C)(C)OC(=O)N[C@@H](Cc1ccccc1)C(=O)N1CC[C@@H](C(=O)N2[C@H]3CC4CC[C@@]3(CS2(=O)=O)C4(C)C)N1",
    "categoryLabel": "NO"
  },
  {
    "compound": "O=C(NN1C(=O)CSC1c1ccco1)c1ccncc1 (stereo not given)",
    "categoryLabel": "NO"
  },
  {
    "compound": "Cn1c(=O)c2nc(CCS)[nH]c2n(C)c1=O",
    "categoryLabel": "NO"
  },
  {
    "compound": "COC1(CC[C@@H](C)COC2OC(CO)C(O)C(O)C2O)OC2C[C@H]3[C@@H]4CC[C@H]5C[C@@H](OC6OC(CO)C(OC7OC(CO)C(O)C(O)C7O)C(O)C6OC6OC(C)C(O)C(O)C6O)[C@H](O)C[C@]5(C)[C@H]4CC[C@]3(C)C2[C@@H]1C (stereo not given in full)",
    "categoryLabel": "NO"
  },
  {
    "compound": "CC(=O)CCC[C@@H](C)[C@@H]1O[C@H]([C@@]2(C)CCC(=O)O2)C[C@H]2C(CSc3ccccc3)C(=O)O[C@@H]12 (stereo not given in full)",
    "categoryLabel": "NO"
  },
  {
    "compound": "Clc1ccccc1/C=C\\C1(c2ccccc2)OCCO1",
    "categoryLabel": "NO"
  },
  {
    "compound": "O=c1c(Cc2ccc(Cc3c(O)oc4ccccc4c3=O)cc2)c(O)oc2ccccc12",
    "categoryLabel": "NO"
  },
  {
    "compound": "CCOC(=O)C(NC(C)=O)(Nc1ccc(F)cc1)C(F)(F)F (stereo not given)",
    "categoryLabel": "NO"
  },
  {
    "compound": "COc1cccc([C@@H]2C/C(=N\\NC(=O)C(=O)N[C@@H](C)c3ccccc3)c3cc4c(cc3N2)OCO4)c1",
    "categoryLabel": "NO"
  },
  {
    "compound": "Cc1ccc(C)c(COCCOCn2cc(N3CCOCC3)c(=O)[nH]c2=O)c1",
    "categoryLabel": "NO"
  }
]
